# test system: T1, human soluble urokinase plasminogen activator receptor (suPAR) (human, UniProt Q03405 23-303, limits assumed)
# T1 construct: Target antigen of the off-rate screen; also called hsuPAR; human suPAR
# T1 sequence (Q03405 23-303 limits assumed): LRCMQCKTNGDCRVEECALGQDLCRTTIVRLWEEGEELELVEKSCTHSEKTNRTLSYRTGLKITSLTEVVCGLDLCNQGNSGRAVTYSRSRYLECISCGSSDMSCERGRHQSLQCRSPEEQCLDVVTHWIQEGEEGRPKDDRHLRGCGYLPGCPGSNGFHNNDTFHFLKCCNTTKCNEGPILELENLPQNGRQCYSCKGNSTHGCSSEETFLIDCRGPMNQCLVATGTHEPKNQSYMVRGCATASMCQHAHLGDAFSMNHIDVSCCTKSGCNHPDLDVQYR
# measurement description: off-rate (kdis) screen of scFv clones, biosensor (Octet)
quantity: koff (s⁻¹)
Field format: number, assumed s⁻¹, no unit text.

Observe how each entry below is paired with its result.
{"binder": "suPAR_DB01_C10 (scFv, V domains shown, screened as scFv) VH: QVQLVQSGAEVKKPGASVKVSCKASGYTFTNYYMHWVRQAPGQGLEWMGWIDPENGNTIYAQKFQGRVTMTRDTSTSTVYMELSSLRSEDTAVYYCARGYDVDWFVYWGQGTLVTVSS VL: DIQMTQSPSSLSASVGDRVTITCRARSSISYMYWYQQKPGKAPKLLIYRTSNLASGVPSRFSGSGSGTDFTLTISSLQPEDFATYYCQQYHSYPPTFGGGTKVEIK", "units of measure": "s⁻¹", "quantitative result": 0.00363}
{"binder": "suPAR_DB01_B08 (scFv, V domains shown, screened as scFv) VH: QVQLVQSGAEVKKPGASVKVSCKASGYTFTGYYMHWVRQAPGQGLEWMGWIDPENGSTIYDQKFQGRVTMTRDTSTSTVYMELSSLRSEDTAVYYCARGYDVDWFVYWGQGTLVTVSS VL: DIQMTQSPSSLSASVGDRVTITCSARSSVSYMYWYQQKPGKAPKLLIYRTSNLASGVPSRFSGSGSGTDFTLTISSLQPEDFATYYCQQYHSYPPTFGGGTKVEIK", "units of measure": "s⁻¹", "quantitative result": 0.00371}

Now for another entry.
Exam item: Return reported koff; argument: suPAR_DB01_B05 (scFv, V domains shown, screened as scFv) VH: QVQLVQSGAEVKKPGASVKVSCKASGYTFTNYYMHWVRQAPGQGLEWMGWIDPENGNTIYDQKFQGRVTMTRDTSTSTVYMELSSLRSEDTAVYYCARGYDVDWFVYWGQGTLVTVSS VL: DIQMTQSPSSLSASVGDRVTITCRASSSVSYMYWYQQKPGKAPKLLIYRTSNLASGVPSRFSGSGSGTDFTLTISSLQPEDFATYYCQQYHSYPPTFGGGTKVEIK
Marked response: 0.00407
